Target: HLA-B*07:0 (Homo sapiens)
Test: MHC binding assay, UV-ligand exchange ELISA
Details: peptide exchange yield, binding to HLA-B*07:0
Readout name: Peptide exchange

[
  {
    "Substance": "155 (MPWVLMSPF; listed as Homo sapiens) [compound 155]",
    "Reading": "++++ (≥75% = ++++)"
  },
  {
    "Substance": "59 (AVDLGVLEL; listed as Homo sapiens) [compound 59]",
    "Reading": "+++ (≥50% = +++)"
  },
  {
    "Substance": "134 (MPCTTILRI; listed as Homo sapiens) [compound 134]",
    "Reading": "++++ (≥75% = ++++)"
  },
  {
    "Substance": "137 (MPIQVLKGL; listed as Homo sapiens) [compound 137]",
    "Reading": "++++ (≥75% = ++++)"
  },
  {
    "Substance": "185 (MPAFLSRASAL; listed as Homo sapiens) [compound 185]",
    "Reading": "++++ (≥75% = ++++)"
  },
  {
    "Substance": "55 (SPVSASWIL; listed as Homo sapiens) [compound 55]",
    "Reading": "++++ (≥75% = ++++)"
  },
  {
    "Substance": "175 (MPFLKVPPL; listed as Homo sapiens) [compound 175]",
    "Reading": "++++ (≥75% = ++++)"
  },
  {
    "Substance": "169 (RPQGVGPAA; listed as Homo sapiens) [compound 169]",
    "Reading": "++++ (≥75% = ++++)"
  },
  {
    "Substance": "77 (YPDVPIGQL; listed as Homo sapiens) [compound 77]",
    "Reading": "+++ (≥50% = +++)"
  }
]
